Recorded below: AC50, system Sodium-dependent serotonin transporter (Homo sapiens). Further: assay procedure not described here.

Some entries whose results are on file:
CN(C)C(=O)Oc1ccc[n+](C)c1; > 30 µM
COc1ccc2c(c1)OC(C)(C)C(c1ccccc1)C2c1ccc(OCCN2CCCC2)cc1 (configuration not stated); 13.2 µM
CCOC(=O)N[C@@H]1CC[C@@H]2[C@@H](C1)C[C@H]1C(=O)O[C@H](C)[C@H]1[C@H]2/C=C/c1ccc(-c2cccc(F)c2)cn1; > 10 µM

Please supply AC50 for each of the following items, keeping them in order.
1. CCC(Cc1c(I)cc(I)c(N)c1I)C(=O)O (configuration not stated)
2. C1N2CN3CN1CN(C2)C3
3. CCOC(=O)CC(SP(=S)(OC)OC)C(=O)OCC (configuration not stated)
4. Nc1nc(-n2cc(C(=O)O)c(=O)c3cc(F)c(N4CC(O)C4)c(Cl)c32)c(F)cc1F
5. C[C@@H]1C[C@H]2[C@@H]3C[C@H](F)C4=CC(=O)C(Cl)=C[C@]4(C)[C@@]3(F)[C@@H](O)C[C@]2(C)[C@@]1(O)C(=O)CO
6. CCC1C(C)=NN=C(c2ccc(OC)c(OC)c2)c2cc(OC)c(OC)cc21 (configuration not stated)
7. NS(=O)(=O)c1cc2c(cc1Cl)NC(C1CC3C=CC1C3)NS2(=O)=O (configuration not stated) [CYCLOTHIAZIDE]
8. CCOC(=O)c1ccc(O)cc1

## Result
["> 30 µM", "> 30 µM", "> 30 µM", "> 30 µM", "> 30 µM", "> 30 µM", "> 30 µM", "> 30 µM"]
